pKi: −log10 of the molar value.
pKi for UniProt:P35462 - collated from the literature.
Sequence (P35462 whole entry): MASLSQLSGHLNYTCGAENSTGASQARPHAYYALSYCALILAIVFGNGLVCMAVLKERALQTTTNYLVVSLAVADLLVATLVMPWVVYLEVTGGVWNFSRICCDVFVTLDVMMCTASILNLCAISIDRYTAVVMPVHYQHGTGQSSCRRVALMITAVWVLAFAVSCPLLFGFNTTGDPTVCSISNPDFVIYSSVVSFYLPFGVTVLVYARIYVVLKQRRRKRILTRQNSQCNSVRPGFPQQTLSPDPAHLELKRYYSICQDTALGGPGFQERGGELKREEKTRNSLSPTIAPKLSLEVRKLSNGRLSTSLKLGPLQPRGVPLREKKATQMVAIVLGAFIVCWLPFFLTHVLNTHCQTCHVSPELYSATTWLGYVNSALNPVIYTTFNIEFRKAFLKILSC
Returns True if the recorded pKi is greater than or equal to 8, and False otherwise.

Illustrative cases are given below, each with its answer.
cpd-smiles	tested-system	class-label
O=C(CCc1cn(CCCCCCCCn2cc(CCC(=O)OC3(c4ccc(Cl)cc4)CCN(CCCC(=O)c4ccc(F)cc4)CC3)nn2)nn1)OC1(c2ccc(Cl)cc2)CCN(CCCC(=O)c2ccc(F)cc2)CC1	UniProt:P35462	True
COc1cc2c(cc1OC)CN(Cc1ccccc1CNC(=O)c1ccc(C#N)cc1)CC2	UniProt:P35462	True
CCc1cc(Cl)c(OC)c(C(=O)NC[C@@H]2C[C@@H](OCCCCOCc3ccccc3)CN2)c1O	UniProt:P35462	True
COc1ccccc1N1CCN(CCCCNC(=O)c2ccc3c(c2)Cc2ccccc2-3)CC1	UniProt:P35462	True

pKi >= 8 for "Cc1ccc2c(C(=O)N[C@H]3CC[C@H](CCN4CCc5ccc(OS(C)(=O)=O)cc5CC4)CC3)cccc2n1" ?
True

For this molecule, is measured pKi 8 or higher? "c1ccc(-c2nc(CN3CCN(c4ccccc4)CC3)cs2)cc1"
False
